Overview of reported NHEJ repair efficiency (log10) across a group of molecules:
system: CLZ3 (HCA2 human fibroblast dual HR-NHEJ reporter); experiment: NHEJ repair efficiency (GFP+ cells) relative to control (log10 fold); higher = more non-homologous end joining; conditions: 5 µM; doxycycline 0.5 ug/mL;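 further: compound given one day ahead of doxycycline, which switches on I-SceI endonuclease to cut the chromosomally integrated reporter and create DSBs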
// keep it numeric: no unit symbol after the value

Check out these entries, answers already filled in.
[
  {
    "molecule": "Oc1ccc2c(c1)OC[C@]1(O)Cc3cc(O)c(O)cc3[C@H]21",
    "NHEJ repair efficiency (log10)": -0.0322
  },
  {
    "molecule": "COc1cc(CCC(C)=O)ccc1O",
    "NHEJ repair efficiency (log10)": 0.275
  }
]

Lab note: next molecule to report on.
// NHEJ repair efficiency (log10) value for CC(C)=CCC[C@](C)(O[C@@H]1O[C@H](CO)[C@@H](O)[C@H](O)[C@H]1O)[C@H]1CC[C@]2(C)[C@@H]1[C@H](O)C[C@@H]1[C@@]3(C)CC[C@H](O[C@@H]4O[C@H](CO)[C@@H](O)[C@H](O)[C@H]4O[C@@H]4O[C@H](CO)[C@@H](O)[C@H](O)[C@H]4O)C(C)(C)[C@@H]3CC[C@]12C [Ginsenoside Rd] : 0.0871
